Data credit: patent US12692262B2

# experimental-system: UniProt O43614
# Sequence (O43614 whole entry): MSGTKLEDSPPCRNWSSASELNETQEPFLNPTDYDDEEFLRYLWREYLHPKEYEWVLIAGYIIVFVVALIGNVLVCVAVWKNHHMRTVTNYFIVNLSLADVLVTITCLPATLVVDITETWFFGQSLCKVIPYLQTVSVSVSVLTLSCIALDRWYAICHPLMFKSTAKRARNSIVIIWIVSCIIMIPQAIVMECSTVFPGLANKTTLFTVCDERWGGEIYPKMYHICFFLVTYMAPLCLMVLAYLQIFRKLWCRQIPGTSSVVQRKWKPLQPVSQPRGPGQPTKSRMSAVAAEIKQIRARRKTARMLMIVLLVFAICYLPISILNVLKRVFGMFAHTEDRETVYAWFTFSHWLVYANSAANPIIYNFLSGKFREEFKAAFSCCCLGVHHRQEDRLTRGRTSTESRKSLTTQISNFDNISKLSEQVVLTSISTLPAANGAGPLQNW
# experiment-notes: IPOne (IP-1 accumulation) assay in CHO cells expressing human OX2R
# reported-conditions: CHO cells expressing human OX2R; IP-One assay, 2 h incubation; four parameter logistic fit; read-out: OX2R Potency, EC50
# Text: The utility of the compounds in accordance with the present invention as orexin receptor OX1R and/or OX2R agonists may be readily determined without undue experimentation by methodology well known in the art. […] The utility of the compounds in accordance with the present invention as orexin receptor OX1R and/or OX2R agonists may be determined utilizing this assay. […]
Assign labels as follows, please: t for EC50 below 30 nM; f for EC50 equal to or exceeding 30 nM.

Incoming: Decide: EC50 of CC[C@H](CCC(F)(F)F)NC(=O)N(CC)[C@H](C)c1ccc(OC)c(-c2cc(N)c3nccn3c2)c1 [Example 8-4] strictly below 30 nM?
Outgoing: t
